Molecular target: T1, Human ST2-his (human, UniProt Q01638-2 19-328, limits assumed)
T1 construct: Expressed in CHO-K1; The printed range starts at Met1; also called human ST2 fused with a 6-histidine tag at the C-terminus
T1 sequence: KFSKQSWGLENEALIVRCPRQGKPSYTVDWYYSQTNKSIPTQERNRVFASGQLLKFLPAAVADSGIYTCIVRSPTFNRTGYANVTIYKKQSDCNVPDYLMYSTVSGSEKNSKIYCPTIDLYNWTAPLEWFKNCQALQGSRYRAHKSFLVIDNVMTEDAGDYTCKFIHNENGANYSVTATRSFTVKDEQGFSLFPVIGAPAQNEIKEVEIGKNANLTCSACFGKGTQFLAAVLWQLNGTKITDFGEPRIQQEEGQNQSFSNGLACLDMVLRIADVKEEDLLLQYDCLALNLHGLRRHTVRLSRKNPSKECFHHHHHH
Test: SPR Biacore X100, antibody captured on protein A chip, human ST2-his injected, dissociation at pH 5.5

Binder	kon, M⁻¹ s⁻¹
5888-153-H3L1 (antibody, human IgG4 S228P, kappa, V domains shown, Humanized antibody) VH: QVQLVQSGAEVKKPGASVKVSCKASGYTFTDYELHWVRQAPGQGLEWMGTIDPETGDTVYNQKFKARVTMTADKSTSTAYMELSSLRSEDTAVYYCTRAFYNDYDDAFAYWGQGTLVTVSS VL: EIVMTQSPATLSLSPGERATLSCSVSSSVSYMHWYQQKPGQAPRRLIYDTSKLASGIPARFSGSGSGTDYTLTISSLEPEDAAVYYCQQWNSSPLTFGGGTKVEIKR	1.9e+06
5888-379-H2L2 (antibody, human IgG4 S228P, kappa, V domains shown, Humanized antibody) VH: QVQLVQSGAEVKKPGASVKVSCKASGYTFINYGMNWVRQAPGQRLEWMGWINTYIGEPTYGDNFKGRVTITRDTSASTAYMELSSLRSEDTAVYYCAREGDAFAYWGQGTLVTVSS VL: DIVMTQSPDSLAVSLGERATINCKSSQSLLYSGNQNNYLAWYQQKPGQPPKLLIYGASTRESGVPDRFSGSGSGTDFTLTISSLQAEDVAVYYCQNDHSYPYTFGGGTKVEIKR	1.01e+07
